Target: phosphoinositide-specific phospholipase C (Bos taurus)
Assay: In vitro inhibitory activity against bovine Phosphoinositide specific phospholipase C (PI-PLC)
REPORTED PROPERTY: IC50

MOLECULE	TARGET	OBSERVED VALUE
CCCCCCCCCCCCCCCC(=O)OC[C@H](COP(=O)(O)OC1C(O)C(O)C(O)C(F)C1O)OC(=O)CCCCCCCCCCCCCCC (stereo partly specified)	phosphoinositide-specific phospholipase C (Bos taurus)	8 µM
